# TEST_SYSTEM: KPC-2 (Klebsiella pneumoniae)
# Sequence (Q9F663 25-293, looked up, species assumed): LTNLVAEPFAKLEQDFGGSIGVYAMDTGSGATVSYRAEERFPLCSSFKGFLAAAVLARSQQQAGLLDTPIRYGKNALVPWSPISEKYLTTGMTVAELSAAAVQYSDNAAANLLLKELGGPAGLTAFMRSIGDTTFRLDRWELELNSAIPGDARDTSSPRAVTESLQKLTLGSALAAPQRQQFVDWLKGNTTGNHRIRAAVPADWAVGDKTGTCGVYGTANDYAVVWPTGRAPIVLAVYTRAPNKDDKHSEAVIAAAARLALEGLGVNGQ
# METHOD_NOTES: KPC-2 inhibition assay, conducted as previously reported
# Type: biochemical
# PARTICULARS: calculated from IC50 by Cheng-Prusoff
PARAMETER_MEASURED: Ki (µM)
Entry rule: numbers only, all in µM.

Query :: So what does the record say about Ki for `O=C(O)c1cccc(S(=O)(=O)Nc2cccnc2)c1` ?
Result :: 1380

Query :: So what does the record say about Ki for Nc1nc(=O)n(CC(O)C(=O)O)cc1Br (stereo not shown) ?
Result :: 280

Query :: So what does the record say about Ki for `COc1ccc2[nH]c(C(=O)O)nc2c1` ?
Result :: 450

Query :: So what does the record say about Ki for `COc1cc(Br)c(-c2nnn[nH]2)cc1OC` ?
Result :: 350

----------
Observed pKi, system GES-5 (Klebsiella pneumoniae).
Bear in mind: pKi is minus log10 of a mol/L concentration; give just that figure.

Query :: So what does the record say about pKi for COc1cc(Br)c(-c2nnn[nH]2)cc1OC [Compound 8] ?
Result :: 3.05

Query :: So what does the record say about pKi for Nc1nc(=O)n(CC(O)C(=O)O)cc1Br (stereo not shown) [Compound 13] ?
Result :: 3.09

Query :: So what does the record say about pKi for O=C(O)c1cccc(S(=O)(=O)Nc2cccnc2)c1 [Compound 12] ?
Result :: 3.00

Query :: So what does the record say about pKi for COc1ccc2[nH]c(C(=O)O)nc2c1 [Compound 43] ?
Result :: 3.18

----------
# TEST_SYSTEM: KPC-2 (Klebsiella pneumoniae)
# METHOD_NOTES: KPC-2 inhibition assay, conducted as previously reported
# Assay type: biochemical
# PARTICULARS: ligand efficiency from Ki vs KPC-2
PARAMETER_MEASURED: LE vs. KPC-2

Query :: So what does the record say about LE vs. KPC-2 for Nc1nc(=O)n(CC(O)C(=O)O)cc1Br (stereo not shown) ?
Result :: 0.33 kcal/mol/non-hydrogen atom

Query :: So what does the record say about LE vs. KPC-2 for `O=C(O)c1cccc(S(=O)(=O)Nc2cccnc2)c1` ?
Result :: 0.21 kcal/mol/non-hydrogen atom

Query :: So what does the record say about LE vs. KPC-2 for `COc1cc(Br)c(-c2nnn[nH]2)cc1OC` ?
Result :: 0.30 kcal/mol/non-hydrogen atom

Query :: So what does the record say about LE vs. KPC-2 for `COc1ccc2[nH]c(C(=O)O)nc2c1` ?
Result :: 0.33 kcal/mol/non-hydrogen atom
